// reported inhibition per item
experiment: 384-well plate pilot, post-Golgi transport modulator project, inhibition of yeast transport mutant growth (AID 636); details: absorbance 615 nm, about 18 h, hits give high values
The figure you give is taken to be in %; do not add the unit.

For orientation, consider the following solved cases.
COc1cc2c(cc1NC(=O)CSc1nnc(Cc3cccs3)n1C)oc1ccccc12    11.5
O=S(=O)(NCC1CCCO1)c1ccc(S(=O)(=O)N2CCc3ccccc3C2)cc1 (stereo unspecified)    0.26
CC(C)(C)c1ccc2c(c1)OCC(C(=O)O)O2 (stereo unspecified)    0.55
COc1ccc2cc(CN(CCO)C(=O)c3ccc(Br)cc3)c(=O)[nH]c2c1    -4.93

Sure, the documented inhibition for CCCCOc1ccc(N(CC(=O)NC2CCCC2)C(=O)CCC(=O)Nc2ccccn2)cc1 is -1.3

Sure, the documented inhibition for CC(O)c1cc2c(cc1NC(=O)c1cnn3c1NC(c1ccco1)CC3C(F)(F)F)OCO2 (stereo unspecified) is 0.65

Sure, the documented inhibition for CSC1=C(C#N)C(c2ccc(C)cc2)C2=C(CCCC2=O)N1 (stereo unspecified) is -2.99

Sure, the documented inhibition for CN1CCN(CCCN2c3ccccc3Sc3ccc(C(F)(F)F)cc32)CC1 is 1.43

Sure, the documented inhibition for CN(C)Cc1c(O)ccc2oc(Cc3ccccc3)cc12 is -6.67

Sure, the documented inhibition for CCOC(=O)c1cc(-c2nnc(-c3ccc(Oc4ccccc4)cc3)o2)c(C)nc1C is -1.6

Sure, the documented inhibition for CCOC(=O)c1sc2nc(SCC(=O)NCc3ccco3)n(Cc3ccccc3)c(=O)c2c1C is -5.68

Sure, the documented inhibition for O=C(CSc1nnc(SCc2ccc(Cl)cc2)s1)N1CCN(C(=O)c2ccco2)CC1 is -8.36

---

// reported Her2 level per item
target: Receptor tyrosine-protein kinase erbB-2 (Homo sapiens) (UniProt P04626); experiment: reducers of endogenous Her2 protein level, primary screen, SKBR3 breast tumor cells, AlphaScreen, ATP viability (AID 461); settings: 18-24 h, at 10 µM, hits give low values;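 note: lower value means less Her2 protein in the cells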
Sequence (P04626 whole entry, looked up): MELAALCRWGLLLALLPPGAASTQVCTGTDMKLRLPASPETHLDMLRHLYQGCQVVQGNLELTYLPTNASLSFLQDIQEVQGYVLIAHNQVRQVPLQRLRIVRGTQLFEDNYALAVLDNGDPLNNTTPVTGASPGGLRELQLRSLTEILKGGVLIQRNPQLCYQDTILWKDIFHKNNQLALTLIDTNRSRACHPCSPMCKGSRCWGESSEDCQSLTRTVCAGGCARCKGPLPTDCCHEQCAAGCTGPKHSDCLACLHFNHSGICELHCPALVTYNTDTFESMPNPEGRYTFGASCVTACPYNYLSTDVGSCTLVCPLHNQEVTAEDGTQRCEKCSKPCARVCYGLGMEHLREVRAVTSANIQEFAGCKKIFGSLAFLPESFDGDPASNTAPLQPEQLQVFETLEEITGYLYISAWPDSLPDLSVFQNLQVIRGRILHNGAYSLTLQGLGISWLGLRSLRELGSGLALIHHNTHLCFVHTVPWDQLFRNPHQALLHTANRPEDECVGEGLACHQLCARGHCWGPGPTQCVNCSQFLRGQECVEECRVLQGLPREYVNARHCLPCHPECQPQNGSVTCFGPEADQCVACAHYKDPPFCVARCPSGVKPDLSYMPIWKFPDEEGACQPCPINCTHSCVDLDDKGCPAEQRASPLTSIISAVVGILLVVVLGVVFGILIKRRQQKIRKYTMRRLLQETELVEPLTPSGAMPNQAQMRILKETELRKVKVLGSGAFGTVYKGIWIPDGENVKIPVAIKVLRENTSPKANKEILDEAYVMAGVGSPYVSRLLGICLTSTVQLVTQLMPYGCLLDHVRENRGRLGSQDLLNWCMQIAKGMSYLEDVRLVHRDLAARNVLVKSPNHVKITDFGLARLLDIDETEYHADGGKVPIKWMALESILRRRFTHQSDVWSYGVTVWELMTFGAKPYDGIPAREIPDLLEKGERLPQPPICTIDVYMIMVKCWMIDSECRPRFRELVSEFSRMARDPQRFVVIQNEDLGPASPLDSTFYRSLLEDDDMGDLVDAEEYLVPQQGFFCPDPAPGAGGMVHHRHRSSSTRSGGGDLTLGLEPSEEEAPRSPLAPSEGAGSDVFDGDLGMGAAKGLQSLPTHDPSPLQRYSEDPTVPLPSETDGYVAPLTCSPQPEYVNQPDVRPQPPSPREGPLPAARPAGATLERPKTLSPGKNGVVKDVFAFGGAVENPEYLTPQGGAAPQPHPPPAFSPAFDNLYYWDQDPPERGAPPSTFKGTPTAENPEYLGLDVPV
The figure you give is taken to be in %; do not add the unit.

For orientation, consider the following solved cases.
CCn1ncc(C2=NOC(C(=O)N3CCC(C(N)=O)CC3)C2)c1C (stereo not drawn)    106
COc1ccc(-n2nc(C(=O)NCC(=O)NCC3CCCO3)c3ccccc3c2=O)cc1 (stereo not drawn)    86.5
COc1cc(C(N)=O)ccc1OCc1ccccc1    83.5
C=CCn1c(SCc2ccc3nonc3c2)nnc1-c1cccs1    79.5
COc1ccccc1CNS(=O)(=O)c1cccc(S(=O)(=O)N2CCOCC2)c1    101

Sure, the documented Her2 level for COc1ccc(N2C(=O)C3CCCN3C2c2ccc(F)cc2)cc1Cl (stereo not drawn) is 93.5

Sure, the documented Her2 level for CCOC(=O)c1ccccc1NC(=O)c1c(O)c2ccccc2n(CC)c1=O is 90

Sure, the documented Her2 level for CN(C)S(=O)(=O)c1ccc(C(=O)N2CCCC2c2nc3ccccc3s2)cc1 (stereo not drawn) is 127

Sure, the documented Her2 level for COc1ccc(N2CCN(Cc3cc(=O)oc4cc(C)c(Cl)c(C)c34)CC2)cc1 is 83.5

Sure, the documented Her2 level for CCSc1nnc(-c2ccc(OC)cc2)o1 is 93.5

Sure, the documented Her2 level for COC(=O)c1cc(Oc2ccc(C(=O)OC)cc2N)cc(C(=O)OC)c1 is 100

Sure, the documented Her2 level for Cc1nnc(NC(=O)CSc2nnc(-c3ccc(S(=O)(=O)N4CCCC4)cc3)n2C)s1 is 88.5

Sure, the documented Her2 level for CCOc1ccc(C(CC(=O)O)NC(=O)c2ccco2)cc1OC (stereo not drawn) is 102

Sure, the documented Her2 level for Cc1ccc(-n2c(SCC3CCCCO3)nnc2-c2ccco2)cc1 (stereo not drawn) is 83

Sure, the documented Her2 level for COC(=O)c1ccc(C(=O)OC)c(NC(=O)Nc2ccc3c(c2)OCO3)c1 is 106

Sure, the documented Her2 level for c1cc2c(cc1C1=Nn3c(nnc3C3CCCCC3)SC1)OCO2 is 108

Sure, the documented Her2 level for COc1ccc(NC(=O)C23CCC(C)(C(=O)C2)C3(C)C)cc1 (stereo not drawn) is 102

Sure, the documented Her2 level for CCN(CC)CCOC(=O)c1cccc(OC)c1 is 105

Sure, the documented Her2 level for CCOc1ccc2oc(-c3ccccc3)c(C(=O)N3CCN(CCO)CC3)c2c1 is 83

Sure, the documented Her2 level for CCCS(=O)(=O)C(=C1Nc2ccccc2N1)S(=O)(=O)CCC is 97.5

Sure, the documented Her2 level for Cc1nn(-c2ccccc2)c2c1C(=O)NC(=O)C(C)(C)C2 is 88.5

Sure, the documented Her2 level for CC(C)(C)n1nnnc1C(c1ccccc1)N1CCc2ccccc2C1 (stereo not drawn) is 82

Sure, the documented Her2 level for C=C(C)COc1ccc(-c2nc(N)ncc2-c2ccc(OC)cc2)c(O)c1 is 73

Hey, just so you know, these numbers are from PubChem BioAssay.
